# target desc: D(1A) dopamine receptor (Homo sapiens) (UniProt P21728)
# Sequence (P21728 whole entry, looked up): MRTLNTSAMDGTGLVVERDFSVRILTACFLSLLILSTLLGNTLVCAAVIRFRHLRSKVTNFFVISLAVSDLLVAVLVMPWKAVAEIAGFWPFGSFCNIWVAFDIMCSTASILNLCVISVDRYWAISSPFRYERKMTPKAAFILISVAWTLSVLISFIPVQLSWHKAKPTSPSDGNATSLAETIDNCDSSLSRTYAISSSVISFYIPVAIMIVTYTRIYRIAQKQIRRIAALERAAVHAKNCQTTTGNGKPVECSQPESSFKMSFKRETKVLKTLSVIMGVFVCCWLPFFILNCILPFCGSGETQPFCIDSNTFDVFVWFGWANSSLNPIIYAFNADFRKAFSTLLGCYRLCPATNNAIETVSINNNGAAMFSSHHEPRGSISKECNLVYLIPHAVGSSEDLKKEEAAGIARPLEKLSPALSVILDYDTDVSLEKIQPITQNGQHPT
# test summary: HTS Assay for Allosteric Agonists of the Human D1 Dopamine Receptor: Primary Screen for Antagonists (AID 488983);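 also: calcium flux response to an EC80 dopamine challenge measured with no-wash dye; nearly all actives have a fitted effect of over 65% in size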
# condition parameters: D1 receptor cell assay, antagonist mode, qHTS titration; series mostly up to 41.8 µM
# Experimental: Dopamine receptors (DARs) are involved in the etiology and/or therapy of a number of neuropsychiatric and endocrine disorders. […] Freshly passaged cells are plated in 1536 well black, clear bottom plates at a density of 4000 cells/well in 3 ul of complete media containing 1x tetracycline inducer. […] Following the 180 second read, 1 ul of an EC80 of dopamine is delivered by an onboard pipette head. […]
Inconclusive results are not listed. Calls of active or inactive are those of the source. Calls follow the shape of the dose curve; as a rule, active = well fitted inhibition curve with a large enough effect; inconclusive = small, poorly fitted or top-dose-only effect, or effect the other way; inactive = flat fitted curve, though single readings scatter.
Returns: one label drawn from active, inactive

Study these solved cases before continuing.
| compound | target desc | cat |
| --- | --- | --- |
| O=C1C=CC(=O)C=C1 | D(1A) dopamine receptor (Homo sapiens) (UniProt P21728) | inactive |
| C=CCN1CCc2cccc3c2[C@H]1Cc1ccc(O)c(O)c1-3 | D(1A) dopamine receptor (Homo sapiens) (UniProt P21728) | active |
| CC1(C(=O)O)C2CCC(O2)C1(C)C(=O)O (stereo unspecified) | D(1A) dopamine receptor (Homo sapiens) (UniProt P21728) | inactive |
| NC(=O)COc1c(F)cc(SCCNS(=O)(=O)c2ccccc2)cc1F | D(1A) dopamine receptor (Homo sapiens) (UniProt P21728) | inactive |
| CC(N)Cc1c[nH]c2ccc(OCc3cccs3)cc12 (stereo unspecified) | D(1A) dopamine receptor (Homo sapiens) (UniProt P21728) | inactive |

Here's the next entry for you.
Exam item: Hi, do you know how `C[N+](C)(C)CCOC(=O)CBr` came out in this test?
Marked response: inactive
